Origin of values: patent US20090124817A1

Experiment: Specific surface area by gas adsorption (BET)
Assay type: physicochemical
Details: BET equation
Specific surface area: recorded values
OBSERVED_PROPERTY: Specific surface area (m^2/g)

>>> value("CC(C)c1c(C(=O)Nc2ccccc2)c(-c2ccccc2)c(-c2ccc(F)cc2)n1CC[C@@H](O)C[C@@H](O)CC(=O)[O-].CC(C)c1c(C(=O)Nc2ccccc2)c(-c2ccccc2)c(-c2ccc(F)cc2)n1CC[C@@H](O)C[C@@H](O)CC(=O)[O-].[Ca+2] [Comparative Example 1, atorvastatin calcium, reference compound]")
0.95
>>> value("CC(C)c1c(C(=O)Nc2ccccc2)c(-c2ccccc2)c(-c2ccc(F)cc2)n1CC[C@@H](O)C[C@@H](O)CC(=O)[O-].CC(C)c1c(C(=O)Nc2ccccc2)c(-c2ccccc2)c(-c2ccc(F)cc2)n1CC[C@@H](O)C[C@@H](O)CC(=O)[O-].[Ca+2] [Example 2, atorvastatin calcium]")
90.28

====

Test: Specific surface area by gas adsorption (BET)
Format: physicochemical
Details: BET equation
Specific surface area less than 50 m^2/g is Y; Specific surface area greater than or equal to 50 m^2/g is N.

>>> cat("CC(C)c1c(C(=O)Nc2ccccc2)c(-c2ccccc2)c(-c2ccc(F)cc2)n1CC[C@@H](O)C[C@@H](O)CC(=O)[O-].CC(C)c1c(C(=O)Nc2ccccc2)c(-c2ccccc2)c(-c2ccc(F)cc2)n1CC[C@@H](O)C[C@@H](O)CC(=O)[O-].[Ca+2] [Starting material, atorvastatin calcium, reference compound]")
"Y"
>>> cat("CC(C)c1c(C(=O)Nc2ccccc2)c(-c2ccccc2)c(-c2ccc(F)cc2)n1CC[C@@H](O)C[C@@H](O)CC(=O)[O-].CC(C)c1c(C(=O)Nc2ccccc2)c(-c2ccccc2)c(-c2ccc(F)cc2)n1CC[C@@H](O)C[C@@H](O)CC(=O)[O-].[Ca+2] [Example 18, atorvastatin calcium]")
"N"
>>> cat("CC(C)c1c(C(=O)Nc2ccccc2)c(-c2ccccc2)c(-c2ccc(F)cc2)n1CC[C@@H](O)C[C@@H](O)CC(=O)[O-].CC(C)c1c(C(=O)Nc2ccccc2)c(-c2ccccc2)c(-c2ccc(F)cc2)n1CC[C@@H](O)C[C@@H](O)CC(=O)[O-].[Ca+2] [Example 10, atorvastatin calcium]")
"Y"
>>> cat("CC(C)c1c(C(=O)Nc2ccccc2)c(-c2ccccc2)c(-c2ccc(F)cc2)n1CC[C@@H](O)C[C@@H](O)CC(=O)[O-].CC(C)c1c(C(=O)Nc2ccccc2)c(-c2ccccc2)c(-c2ccc(F)cc2)n1CC[C@@H](O)C[C@@H](O)CC(=O)[O-].[Ca+2] [Example 25, atorvastatin calcium]")
"N"
>>> cat("CC(C)c1c(C(=O)Nc2ccccc2)c(-c2ccccc2)c(-c2ccc(F)cc2)n1CC[C@@H](O)C[C@@H](O)CC(=O)[O-].CC(C)c1c(C(=O)Nc2ccccc2)c(-c2ccccc2)c(-c2ccc(F)cc2)n1CC[C@@H](O)C[C@@H](O)CC(=O)[O-].[Ca+2] [Example 9, atorvastatin calcium]")
"Y"

====

Experiment: Particle size by dynamic light scattering / laser diffraction
Type: physicochemical
Conditions: DLS, dispersed in mineral oil, room temperature
Recorded Mean particle size, one value per entry.
OBSERVED_PROPERTY: Mean particle size

>>> value("CC(C)c1c(C(=O)Nc2ccccc2)c(-c2ccccc2)c(-c2ccc(F)cc2)n1CC[C@@H](O)C[C@@H](O)CC(=O)[O-].CC(C)c1c(C(=O)Nc2ccccc2)c(-c2ccccc2)c(-c2ccc(F)cc2)n1CC[C@@H](O)C[C@@H](O)CC(=O)[O-].[Ca+2] [Example 10, atorvastatin calcium]")
"727 nm"
>>> value("CC(C)c1c(C(=O)Nc2ccccc2)c(-c2ccccc2)c(-c2ccc(F)cc2)n1CC[C@@H](O)C[C@@H](O)CC(=O)[O-].CC(C)c1c(C(=O)Nc2ccccc2)c(-c2ccccc2)c(-c2ccc(F)cc2)n1CC[C@@H](O)C[C@@H](O)CC(=O)[O-].[Ca+2] [Example 9, atorvastatin calcium]")
"265 nm"
>>> value("CC(C)c1c(C(=O)Nc2ccccc2)c(-c2ccccc2)c(-c2ccc(F)cc2)n1CC[C@@H](O)C[C@@H](O)CC(=O)[O-].CC(C)c1c(C(=O)Nc2ccccc2)c(-c2ccccc2)c(-c2ccc(F)cc2)n1CC[C@@H](O)C[C@@H](O)CC(=O)[O-].[Ca+2] [Example 2, atorvastatin calcium]")
"179 nm"
